The origin of these recorded values is ChEMBL document CHEMBL3352363.

assay.target: UniProt:P33033
Sequence (P33033 whole entry): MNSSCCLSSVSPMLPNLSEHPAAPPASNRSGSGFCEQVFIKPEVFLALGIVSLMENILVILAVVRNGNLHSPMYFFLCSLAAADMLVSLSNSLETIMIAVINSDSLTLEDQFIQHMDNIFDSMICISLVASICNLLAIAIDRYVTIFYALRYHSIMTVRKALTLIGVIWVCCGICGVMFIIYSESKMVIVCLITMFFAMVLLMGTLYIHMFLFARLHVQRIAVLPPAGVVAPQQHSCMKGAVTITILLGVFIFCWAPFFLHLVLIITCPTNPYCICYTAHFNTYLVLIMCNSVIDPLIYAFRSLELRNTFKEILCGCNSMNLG
assay.remarks: Activity at mouse MC3R expressed in HEK293 cells assessed as cAMP accumulation by CRE/beta-galactosidase reporter gene assay
observation.type: EC50 (nM)
# unit: nM | format: bare number

Here's what some known entries look like.
# test.smiles, EC50 [nM]
measured = [
    ("CCCC[C@H](NC(C)=O)C(=O)N[C@H]1CCn2cc(nn2)CCC[C@@H](C(N)=O)NC(=O)[C@H](Cc2c[nH]c3ccccc23)NC(=O)[C@H](CCCNC(=N)N)NC(=O)[C@@H](Cc2ccccc2)NC(=O)[C@H](Cc2cnc[nH]2)NC1=O", 0.2),
    ("CCCC[C@H](NC(C)=O)C(=O)N[C@H]1CCCCc2cn(nn2)C[C@@H](C(N)=O)NC(=O)[C@H](Cc2c[nH]c3ccccc23)NC(=O)[C@H](CCCNC(=N)N)NC(=O)[C@@H](Cc2ccccc2)NC(=O)[C@H](Cc2cnc[nH]2)NC1=O", 0.2),
    ("CCCC[C@H](NC(C)=O)C(=O)N[C@@H](CC(=O)O)C(=O)N[C@@H](Cc1c[nH]cn1)C(=O)N[C@H](Cc1ccccc1)C(=O)N[C@@H](CCCN=C(N)N)C(=O)N[C@@H](Cc1c[nH]c2ccccc12)C(=O)N[C@@H](CCCCN)C(N)=O", 1.1),
]

Report value only: EC50, UniProt:P33033, CCCC[C@H](NC(C)=O)C(=O)N[C@H]1CCc2cn(nn2)CCC[C@@H](C(N)=O)NC(=O)[C@H](Cc2c[nH]c3ccccc23)NC(=O)[C@H](CCCNC(=N)N)NC(=O)[C@@H](Cc2ccccc2)NC(=O)[C@H](Cc2cnc[nH]2)NC1=O
0.29
